# IC50 per entry
- tested.on: GST tagged PIP4KtypeIIA (Homo sapiens, UniProt P48426)
- Construct: made in house; host or cells: E. coli
- Sequence (P48426 whole entry): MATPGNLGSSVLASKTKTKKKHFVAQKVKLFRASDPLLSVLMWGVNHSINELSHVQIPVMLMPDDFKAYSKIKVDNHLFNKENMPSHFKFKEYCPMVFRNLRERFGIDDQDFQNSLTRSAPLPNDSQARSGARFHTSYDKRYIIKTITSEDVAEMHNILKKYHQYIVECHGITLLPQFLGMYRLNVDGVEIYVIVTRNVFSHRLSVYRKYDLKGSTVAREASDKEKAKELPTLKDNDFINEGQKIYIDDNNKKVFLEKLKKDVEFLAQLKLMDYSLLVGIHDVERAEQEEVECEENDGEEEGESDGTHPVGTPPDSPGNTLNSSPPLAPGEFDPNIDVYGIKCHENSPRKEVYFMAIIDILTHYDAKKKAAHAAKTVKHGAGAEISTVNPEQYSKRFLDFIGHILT
- assay.procedure: ADP-glo kinase assay PIP4K 2A (PIP4KtypeIIA inhibition assay)
- Type: biochemical
- run.parameters: Table 3; compounds listed under IC50 range headings; 10 uM ATP, 0.5 nM PIP4KIIA

Field: example entries. Status: answers known.
Cc1cnc2[nH]cc(-c3cncc(-c4ccc(N5CCCC5=O)cc4)c3)c2c1 [Example 31]	10 to 100 nM
Cc1c(-c2ccc(N3CCCC3=O)cc2)cncc1-c1cn(C)c2ncc(C(C)(C)O)cc12 [Example 172]	1000 to 2500 nM
Cc1cc(N2CCCC2=O)ccc1-c1cncc(-c2cn(C)c3ncc([C@@H](C)O)cc23)c1 (single isomer, unassigned) [197(R)]	100 to 1000 nM
O=C1CCCN1c1ccc(-c2cncc(-c3ccnc4[nH]ncc34)c2)cc1 [Example 215]	100 to 1000 nM

Pending molecule:
Query string: Recorded IC50 for Cn1cc(-c2cncc(-c3ccc(N4CCCC4=O)cc3)c2)c2cn[nH]c2c1=O [Example 54] , please?
Result string: 100 to 1000 nM

====

Test system GST tagged PIP4KtypeIIA (Homo sapiens, UniProt P48426), pIC50 listed for each of the molecules.
pIC50: −log10 of the molar value.

Field: example entries. Status: answers known.
COC(=O)c1cc2c(-c3cncc(-c4ccc(N5CCCC5=O)cn4)c3)ccnc2[nH]1	5.60 to 6.00
CN(CC1CCCNC1)C(=O)c1ccc(-c2cncc(-c3ccncc3)c2)cc1 (stereo not shown)	< 5.30
Nc1ncc(-c2ccnc3[nH]c(C(=O)NCC(F)(F)F)cc23)cc1-c1ccc(C(=O)NCC(F)(F)F)cn1	< 5.30
Cc1cc(N2CCCC2=O)ccc1-c1cncc(-c2cn(C)c3ncc(C(C)(C)O)cc23)c1	5.30 to 5.60
COCc1cc(-c2cncc(-c3ccc(N4CCCC4=O)cc3)c2)n2nc(C)cc2n1	5.30 to 5.60

Query string: Lookup: pIC50 / GST tagged PIP4KtypeIIA (Homo sapiens, UniProt P48426) / CN(C)C(=O)c1ccc(-c2cc(-c3ccnc4[nH]c(C(=O)N(C)C)cc34)cnc2N)nc1
Result string: 6.00 to 7.00

Query string: Lookup: pIC50 / GST tagged PIP4KtypeIIA (Homo sapiens, UniProt P48426) / O=C1CCCN1c1ccc(-c2cncc(-c3c[nH]c4ncccc34)c2)cc1
Result string: 6.00 to 7.00

Query string: Lookup: pIC50 / GST tagged PIP4KtypeIIA (Homo sapiens, UniProt P48426) / O=C(NCCc1cncs1)c1cc2c(-c3cncc(-c4ccc(N5CCCC5=O)cc4)c3)ccnc2[nH]1
Result string: 6.00 to 7.00

Query string: Lookup: pIC50 / GST tagged PIP4KtypeIIA (Homo sapiens, UniProt P48426) / O=C(NC1COC1)c1cc2c(-c3cncc(-c4ccc(N5CCCC5=O)cc4)c3)ccnc2o1
Result string: 7.00 to 8.00

Query string: Lookup: pIC50 / GST tagged PIP4KtypeIIA (Homo sapiens, UniProt P48426) / CN(C)C(=O)c1ccc(-c2cc(-c3cnc4c(c3)c(-c3cncnc3)nn4C)cnc2N)nc1
Result string: < 5.30
